experiment: One hour kinetic solubility in acetic acid/sodium acetate ion mixtures; format: physicochemical; conditions: USP buffer with acetic acid/sodium acetate, 25 °C, pH 8.2, aqueous buffer, thermodynamic from solid, pH 8.2; acetic acid/sodium acetate 0.5 M; 25° C.; read-out: Solubility at 1 hr
measured-endpoint: solubility at 1 h (mg/mL)
Provide the reading as a plain figure in mg/mL.

Recorded solubility at 1 h for CC(=O)[O-].CCO/N=C(\C(=O)N[C@@H]1C(=O)N2C(C(=O)O)=C(Sc3nc(-c4cc[n+](C)cc4)cs3)CS[C@H]12)c1nsc(NP(=O)(O)O)n1.O , please?
125

---

experiment: pH solubility profile: one hour and three hour kinetic solubility in USP buffers at 0.05 M; type: physicochemical; details: aqueous buffer, thermodynamic from solid; pH 5.9; USP buffer 0.05 M; 25° C.
measured-endpoint: solubility at 3 h (mg/mL)
Give the number; mg/mL is assumed, so skip it.

Bench note: what solubility at 3 h did CC(=O)[O-].CCO/N=C(\C(=O)N[C@@H]1C(=O)N2C(C(=O)O)=C(Sc3nc(-c4cc[n+](C)cc4)cs3)CS[C@H]12)c1nsc(NP(=O)(O)O)n1.O [ceftaroline fosamil] show?
29
